src = PubChem BioAssay (NCI)

System: CCRF-CEM leukemia
Test: NCI tumour cell line growth inhibition, 48 h
// reported TGI per item
Endpoint name: TGI (µM)

[[record]]
molecule = "Cc1cccc2nc3ccccc3c(Nc3ccc(NS(C)(=O)=O)cc3)c12"
endpoint_name = "TGI"
censoring_operator = "="
observed_value = 12.2

[[record]]
molecule = "COc1ccc2c(c1)[nH]c(=O)c1c3cccc(F)c3cn21"
endpoint_name = "TGI"
censoring_operator = "="
observed_value = 0.304

[[record]]
molecule = "CC1(C)CNc2cc(NC(=O)c3cccnc3NCc3ccncc3)ccc21"
endpoint_name = "TGI"
censoring_operator = ">"
observed_value = 100

[[record]]
molecule = "CC(=O)Nc1c(S(=O)(=O)c2ccccc2)c(C)c(C)n1Cc1ccccc1"
endpoint_name = "TGI"
censoring_operator = ">"
observed_value = 100

[[record]]
molecule = "COc1ccc(C/C(=C(\\C)c2ccc(OCCN3CCCC3)cc2)c2ccc(OCCN3CCCC3)cc2)cc1"
endpoint_name = "TGI"
censoring_operator = "="
observed_value = 4.51

[[record]]
molecule = "COc1ccc2c(c1OC)CO[C@@H]2[C@H]1c2c(cc3c(c2OC)OCO3)CCN1S(=O)(=O)c1cn(C)cn1"
endpoint_name = "TGI"
censoring_operator = ">"
observed_value = 100

[[record]]
molecule = "O=C(Nc1ccccc1)Nc1ccc2cc3ccc(NC(=O)Nc4ccccc4)cc3nc2c1"
endpoint_name = "TGI"
censoring_operator = "="
observed_value = 0.828

[[record]]
molecule = "Cc1cccc(C)c1NC(=O)C1=NC(=S)NC(c2ccccc2)C1c1nc2ccccc2s1 (stereo not given)"
endpoint_name = "TGI"
censoring_operator = ">"
observed_value = 100

[[record]]
molecule = "O=C1C(Cl)=C(N(C(=O)c2ccccc2)C(=O)c2ccccc2)C(=O)c2ccccc21"
endpoint_name = "TGI"
censoring_operator = "="
observed_value = 18.6

[[record]]
molecule = "c1ccc(C2OC3(CCC[C@H]4C[C@H]43)O[C@H]2c2ccccc2)cc1 (stereo not given in full)"
endpoint_name = "TGI"
censoring_operator = "="
observed_value = 49.9


====

// reported log10 TGI per item
System: MCF7 breast
Experiment: NCI tumour cell line growth inhibition, 48 h
Endpoint name: log10 TGI (log10 of the value in µM)

[[record]]
compound = "C=C1C(=O)O[C@@H]2[C@H](O)[C@@H](C)[C@@H]3C=CC(=O)[C@@]3(C)[C@@H](OC(=O)/C(C)=C/C)[C@H]12"
endpoint_name = "log10 TGI"
observed_value = 0.71

[[record]]
compound = "CC(C)=CCc1[nH]c2ccccc2c1C1=C(O)C(=O)C(c2c(CC=C(C)C)[nH]c3ccccc23)=C(O)C1=O"
endpoint_name = "log10 TGI"
observed_value = 0.97

[[record]]
compound = "CCOC(=O)C(NC(=O)c1ccccc1)(N1CCN(c2cc3c(cc2F)c(=O)c(C(=O)O)cn3CC)CC1)C(F)(F)F (stereo not drawn)"
endpoint_name = "log10 TGI"
observed_value = 1.84

[[record]]
compound = "Cc1cc(S(=O)(=O)Nc2nc3ccccc3nc2-c2ccc(Cl)cc2)c(S)cc1Cl"
endpoint_name = "log10 TGI"
observed_value = 1.53

[[record]]
compound = "O=C1CC[C@@]2(O)[C@H]3Cc4ccc(-c5ccccc5)c5c4[C@@]2(CCN3CC2CC2)[C@H]1O5"
endpoint_name = "log10 TGI"
observed_value = 1.53

[[record]]
compound = "Cc1ccc(S(=O)(=O)SC(C)(C)C)cc1"
endpoint_name = "log10 TGI"
observed_value = 1.62

[[record]]
compound = "O=S(=O)(NNc1ccccc1)c1ccccc1"
endpoint_name = "log10 TGI"
observed_value = 1.46

[[record]]
compound = "COC(=O)c1c(O)ccc2[nH]c3c(O)c4ccccc4cc3c12"
endpoint_name = "log10 TGI"
observed_value = 1.75

[[record]]
compound = "Cc1cc(=O)n2nc(CCl)sc2n1"
endpoint_name = "log10 TGI"
observed_value = 1.46

